Tested on: human cadaver skin
Test: Phage display library selection for skin penetration using tape stripping
Type: in vitro ADME
Settings: phage-displayed peptide; phages recovered from tape strips 21-24 and remaining skin after 4 rounds of selection; 57 plaques sequenced
Protocol: Human cadaver skin was stored frozen. Prior to using, the frozen sections were placed in PBS and warmed to room temperature. The phage libraries or synthesized peptide sequences were applied to the stratum corneum side of the skin sample. […] The contents of each microfuge tube were transferred to a corresponding culture tube containing 3mL of soft agar maintained at 45° C. […] Plates having approximately 100 plaques were counted providing an adjustment for the dilution factor. […]
quantity_name: Frequency of Sequence in Plaques from Tape Stripping of Human Cadaver Skin Study (n/57)
Please reply with the bare figure in n/57 and do not write the unit itself.

Consider the reported Frequency of Sequence in Plaques from Tape Stripping of Human Cadaver Skin Study for these substances:
>>> print(df.to_string())
                                  substance  test_result
0  2 (ACSLPWDASC; Phage display library peptides) [compound 2]            1
1  3 (ACDTPRLTHC; Phage display library peptides) [compound 3]            2
2  1 (ACLPGVLGSC; Phage display library peptides) [compound 1]            1

Inquiry: Please list Frequency of Sequence in Plaques from Tape Stripping of Human Cadaver Skin Study recorded for the substance 6 (ACLDNTFRAC; Phage display library peptides) [compound 6]
Reply text: 2

Inquiry: Please list Frequency of Sequence in Plaques from Tape Stripping of Human Cadaver Skin Study recorded for the substance 5 (AKSSWWGRAYWY; Phage display library peptides) [compound 5]
Reply text: 1

Inquiry: Please list Frequency of Sequence in Plaques from Tape Stripping of Human Cadaver Skin Study recorded for the substance 7 (ASSTTLNTLAQ; Phage display library peptides) [compound 7]
Reply text: 9

Inquiry: Please list Frequency of Sequence in Plaques from Tape Stripping of Human Cadaver Skin Study recorded for the substance 8 (ASSDIPLFTRY; Phage display library peptides) [compound 8]
Reply text: 1

Inquiry: Please list Frequency of Sequence in Plaques from Tape Stripping of Human Cadaver Skin Study recorded for the substance 4 (TWTQAWPWGWTW; Phage display library peptides) [compound 4]
Reply text: 1
